Test system: HDAC activity in primary mouse cortical cultures
Test: Whole-Cell Histone Deacetylase (HDAC) Inhibition Assay in Primary Mouse Cortical Cultures
Assay type: cell-based
Settings: whole-cell (WC), mouse cortical neurons; Table 8; read-out: HDAC Inhibition (IC50 μM) WC mouse cortical neurons
observed.property: IC50

Here "O=C(NO)c1ccc(C2=Nc3ccccc3Oc3cnccc32)cc1" was tested on HDAC activity in primary mouse cortical cultures, and its IC50 came to < 1 µM

Here "Cc1ccc2c(c1)Oc1ccccc1N=C2c1ccc(C(=O)NO)cc1" was tested on HDAC activity in primary mouse cortical cultures, and its IC50 came to 1 to 5 µM

Here O=C(NO)c1ccc(C2Nc3ccccc3Oc3ccccc32)cc1 (stereo not shown) was tested on HDAC activity in primary mouse cortical cultures, and its IC50 came to 1 to 5 µM

API: the following record is the query input.
Here "O=C(NO)c1ccc(C2=Nc3ccccc3Oc3ccccc32)cc1F" was tested on HDAC activity in primary mouse cortical cultures, and its IC50 came to 5 to 15 µM

---

Biological target: one or more of HDAC-1, HDAC-2, HDAC-3, HDAC-4, HDAC-5, HDAC-6, HDAC-7, HDAC-8, HDAC-9, HDAC-10 and HDAC-11
Assay: Inhibition of Histone Deacetylase Enzymatic Activity (Boc-Lys(Ac)-AMC substrate, Fluor-de-Lys developer)
Assay type: biochemical
Conditions: Table 9; read-out: HDAC Inhibition (IC50 μM) HDAC Enzyme
observed.property: IC50

Solved entries (count: 3):
// sample "O=C(NO)c1cnc(N2C[C@@H]3C[C@H]2CN3c2cc(C(F)(F)F)cc(C(F)(F)F)c2)nc1" , its IC50 was < 0.05 µM

// sample O=C(NO)c1cnc(N2CC3CC2CO3)nc1 (centres unmarked) , its IC50 was 0.1 to 1 µM

// sample "O=C(NO)c1ccc(N2C[C@H]3C[C@@H]2CN3c2cc(C(F)(F)F)ccn2)cc1" , its IC50 was 1 to 10 µM

New cases:
// sample Cc1cccc(N2CC3CC2CN3c2ccc(C(=O)NO)cc2)c1 (centres unmarked) , its IC50 was 0.1 to 1 µM

// sample "O=C(NO)c1cnc(N2C[C@@H]3C[C@H]2CN3C(=O)c2ccccc2)nc1" , its IC50 was < 0.05 µM

---

IC50 listing for selected compounds.
Target: one or more of HDAC-1, HDAC-2, HDAC-3, HDAC-4, HDAC-5, HDAC-6, HDAC-7, HDAC-8, HDAC-9, HDAC-10 and HDAC-11
Experiment: Inhibition of Histone Deacetylase Enzymatic Activity (Boc-Lys(Ac)-AMC substrate, Fluor-de-Lys developer)
Assay type: biochemical
Conditions: Table 8; read-out: HDAC Inhibition (IC50 μM) HDAC Enzyme

Solved entries (count: 3):
// sample "COc1ccc2c(c1)Oc1ccccc1N=C2c1ccc(C(=O)NO)cc1" , its IC50 was 0.1 to 1 µM

// sample "N#Cc1ccc2c(c1)Oc1ccccc1C(c1ccc(C(=O)NO)cc1)=N2" , its IC50 was < 0.05 µM

// sample "O=C(NO)c1ccc(C2=Nc3ccccc3Oc3ccccc32)cc1F" , its IC50 was 0.1 to 1 µM

New cases:
// sample "O=C(NO)c1ccc(C2=Nc3ccccc3S(=O)(=O)c3ccccc32)cc1" , its IC50 was 1 to 10 µM

// sample C[S+]([O-])c1cccc2c1Oc1ccccc1N=C2c1ccc(C(=O)NO)cc1 (centres unmarked) , its IC50 was 0.05 to 0.1 µM

// sample "O=C(NO)c1ccc(C2=Nc3ccsc3Oc3ccccc32)cc1" , its IC50 was 0.1 to 1 µM

// sample "O=C(NO)c1ccc(C2=Nc3ccccc3Oc3cc(C(F)(F)F)ccc32)cc1" , its IC50 was 0.05 to 0.1 µM

// sample "N#Cc1ccc2c(c1)N=C(c1ccc(C(=O)NO)cc1)c1ccccc1O2" , its IC50 was 0.05 to 0.1 µM

// sample "COc1cc(F)cc2c1Oc1ccccc1N=C2c1ccc(C(=O)NO)cc1" , its IC50 was < 0.05 µM
